- study.system: T1, ECT2-303 (Arabidopsis thaliana, UniProt Q9LJE5 303-667)
- T1 sequence: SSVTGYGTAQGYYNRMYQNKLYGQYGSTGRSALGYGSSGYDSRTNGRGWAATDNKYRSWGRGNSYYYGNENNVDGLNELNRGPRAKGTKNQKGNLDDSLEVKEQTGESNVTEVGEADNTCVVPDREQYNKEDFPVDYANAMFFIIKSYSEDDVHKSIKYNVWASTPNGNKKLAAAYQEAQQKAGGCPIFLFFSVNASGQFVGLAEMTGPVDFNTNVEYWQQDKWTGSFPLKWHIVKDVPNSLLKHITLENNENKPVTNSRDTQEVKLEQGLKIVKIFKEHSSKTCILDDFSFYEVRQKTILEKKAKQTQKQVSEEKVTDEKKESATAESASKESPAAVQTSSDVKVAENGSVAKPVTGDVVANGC
- protocol.summary: EMSA; apparent Kd from free probe; EMSA: 10 nM FAM-RNA; binding buffer 10 mM HEPES pH 8.0, 50 mM KCl, 1 mM EDTA, 0.05% Triton X-100, 5% glycerol, 10 µg/mL salmon DNA, 1 mM DTT, 40 U/mL RNasin; 20 min on ice; native 8% acrylamide TBE gel at 4°C
- run.parameters: protein: recombinant; tags: N-terminal His-SUMO; label: 5' FAM
value.type: pKd
Keep in mind that pKd stands for -log10 of concentration in molar terms.

# annotated cases, reported pKd shown
## Task pKd for AUGUGUCUUUCAUGUACUAAAAGGACUGCUCUUGUGUCUUGU (ssRNA, m6A at position 25; thiol-protected 3' bases (*G*U)) [Probe IV m6A] ?
## Result 7.07

## Task Return reported pKd; argument: AAGGGCCGAACAACAGCAAAAAGGACUGCAAAAGGGGCAAGA (ssRNA, m6A at position 25; thiol-protected 3' bases (*G*A)) [Probe III m6A]
## Result 7.41

Would you kindly look at the next entry?
## Task Name the reported pKd value associated with the binder AUGGGCCGUUCAUCUGCUAAAAGGACUGCUUUUGGGGCUUGU (ssRNA, m6A at position 25; thiol-protected 3' bases (*G*U)) [Probe I m6A]
## Result 7.26
